Test: budding yeast growth changes without added modifier – OD600, strain BY4716, 24 h, basal condition, primary screen (AID 1173)
Conditions: S. cerevisiae BY4716 growth, OD600, 24 h; higher = more signal, called active from +8 up or from −8 down
MEASURED_PARAMETER: z-score
In your answer, state the number alone without any accompanying words.

{"COMPOUND": "CCCCN1CC=CC23O[C@@H]4/C=C\\CCCOC(=O)C4[C@H]2C(=O)N(CCO)[C@@H]3C1=O (some centres undefined)", "z-score": 0.291}
{"COMPOUND": "Cc1ccc(S[C@]2(C(=O)NCC(F)(F)F)CC(=O)N(Cc3cc(C(F)(F)F)cc(C(F)(F)F)c3)[C@@H]2c2ccc(CO)cc2)cc1", "z-score": 0.438}
{"COMPOUND": "CN(C)C(=O)[C@@]1(Cc2ccccc2CN=[N+]=[N-])N=C(c2ccc(OCCCO)cc2)O[C@H]1c1ccccc1N=[N+]=[N-]", "z-score": 0.37}
{"COMPOUND": "COc1cc(NN2C(C(O)c3ccc(N(C)C)cc3)C=CC3C(=O)N(c4ccccc4)C(=O)C32)cc(OC)c1OC (centres undefined)", "z-score": 0.744}
{"COMPOUND": "CCOC(=O)C[C@H]1[C@H](OC(=O)Cc2ccc3c(c2)OCO3)[C@@H](NC(=O)c2ccc3ccccc3n2)c2cc(OCCCO)ccc2N1C(=O)c1ccccc1", "z-score": -0.407}
{"COMPOUND": "NC(=O)NCC#Cc1ccc2c(c1)[C@]1(C(=O)N2)[C@H](c2ccccc2OCCO)N2[C@H](c3ccccc3)[C@H](c3ccccc3)OC(=O)[C@H]2[C@@H]1C(=O)O", "z-score": -0.462}
{"COMPOUND": "NC(=O)[C@H]1[C@@H]2C(=O)O[C@@H](c3ccccc3)[C@@H](c3ccccc3)N2[C@@H](c2ccc(OCCO)cc2)[C@]12C(=O)Nc1ccc(C#CCCO)cc12", "z-score": 0.704}
{"COMPOUND": "C=CCNC(=O)[C@@H]1[C@H]2C(=O)O[C@H](c3ccccc3)[C@H](c3ccccc3)N2[C@H](c2ccccc2OCCO)[C@@]12C(=O)Nc1ccc(C#CCCO)cc12", "z-score": 0.634}

### Prompt Quick check: z-score of [N-]=[N+]=Nc1ccccc1C[C@@]1(C(=O)N2CCOCC2)N=C(c2ccc(OCCCO)cc2)O[C@@H]1c1ccccc1 ?
### Response -1.76

### Prompt Any idea what z-score was measured for Cc1cc(C)c(C(O)C2C=CC3C(=O)N(c4ccccc4)C(=O)C3N2Nc2ccccc2F)c(C)c1 (centres undefined) ?
### Response 2.01

### Prompt Which z-score is reported for this compound? CCOc1cc(C(O)C2C=CC3C(=O)NC(=O)C3N2Nc2ccc(Cl)cc2Cl)ccc1O (centres undefined)
### Response 0.203

### Prompt Can you look up the measured z-score of Cc1ccc(S[C@]2(C(=O)NCC(F)(F)F)CC(=O)N(Cc3cc(C(F)(F)F)cc(C(F)(F)F)c3)[C@@H]2c2ccc(CO)cc2I)cc1 for me?
### Response -3.16

### Prompt What value of z-score has been recorded for this entry: CC(C)NC(=O)[C@@]1(c2ccc([N+](=O)[O-])cc2)CC(=O)N(C2CCCCC2)[C@@H]1c1ccc(CO)cc1
### Response 0.178

### Prompt GET /values?readout=z-score&item= COc1cc2c(cc1O)C(c1ccc(CN3CCCC3)cc1)N(Cc1cc3c(cc1Br)OCO3)CC2 (centres undefined)
### Response -0.714
